assay_target: HIV-1 Du156.12 Env (HIV-1 Du156.12)
assay_method_text: cell-based or functional assay
property_label: IC50, neutralization of Du156.12 pseudovirus (µg/mL)

>>> obs_value("H4K3_RS73PE (antibody, V domains shown) VH: KVQLVQSGAELKKPWSSVRVSCKASGGSFSSYAFNWVRQAPGQRLEWLGGIVPLVSSTNYAQRFRGRVTISADPETSTVYLEMTGLTSADTAVYFCAREGEGWFGRPLRAFEFWGQGTLVTVST VL: EIVLTQSPGTFALSPGERATLSCRASQSVSGGALAWYQQKAGQAPRLLIYDTSGRATGVPGRFSGSGSETDFSLTISRLEPEDFAVYYCQQYGTSQSTFGQGTRLETR")
0.814
>>> obs_value("PGZL1.H4K3 (antibody, V domains shown) VH: KVQLVQSGAELKKPWSSVRVSCKASGGSFSSYAFNWVRQAPGQRLEWLGGIVPLVSSTNYAQRFRGRVTISADRSTSTVYLEMTGLTSADTAVYFCAREGEGWFGRPLRAFEFWGQGTLVTVST VL: EIVLTQSPGTFALSPGERATLSCRASQSVSGGALAWYQQKAGQAPRLLIYGTSGRATGVPGRFSGSGSETDFSLTISRLEPEDFAVYYCQQYGTSQSTFGQGTRLETR")
0.11
>>> obs_value("H4K3_5M (antibody, V domains shown) VH: KVQLVQSGAELKKPWSSVRVSCKASGGEPESYAFNWVRQAPGQRLEWLGGIVPLVSSTNYAQRFRGRVTISADPETSTVYLEMTGLTSADTAVYFCAREGEGWFGRPLRAFEFWGQGTLVTVST VL: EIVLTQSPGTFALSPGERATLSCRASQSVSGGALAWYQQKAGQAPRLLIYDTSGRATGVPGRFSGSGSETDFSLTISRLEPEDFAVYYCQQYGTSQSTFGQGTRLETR")
9.31
